Measured values drawn from patent US20260315452A1 for this set.

Record type: IC50 measurement. Applies to: UniProt P0DTD1

INSERT INTO assay_data (molecule, result) VALUES
  ('CNC(=O)c1cc(Br)cc(C(F)(F)F)c1N[C@H]1CN(C(=O)c2cncc3ccccc23)CCC1(F)F', '< 100 nM'),
  ('CNC(=O)c1cc(Br)cc(C(F)(F)F)c1N[C@H]1CN(C(=O)c2cncc3ccccc23)CC[C@@H]1F', '< 100 nM'),
  ('CC(C)(O)CNC(=O)c1cc(Cl)cc([N+](=O)[O-])c1N[C@H]1CN(C(=O)c2cncc3ccccc23)CCC1(F)F', '< 100 nM'),
  ('CNC(=O)c1cc(Br)cc([N+](=O)[O-])c1N1CCC2(CCN(C(=O)c3cncc4ccccc34)C2)C1 (centres unmarked)', '100 to 1000 nM'),
  ('CNC(=O)c1cc(Cl)cc([N+](=O)[O-])c1N[C@H]1CN(C(=O)c2cncc3cnn(C)c23)CCC1(F)F', '< 100 nM');

Batch lookup, IC50 per entry.
1. CNC(=O)c1cc(Br)cc([N+](=O)[O-])c1NC(C(C)C)C1CN(C(=O)c2cncc3ccccc23)C1 (stereo in doubt) [Compound 15]
2. O=C(NC1CC(F)(F)C1)c1cc(Br)cc([N+](=O)[O-])c1N[C@@H]1CCCC[C@@H]1NC(=O)c1cncc2ccccc12

stdout:
≥ 10000 nM
< 100 nM

Look up IC50 for the entries below, preserving their order.
1. O=C(c1cc(Cl)cc([N+](=O)[O-])c1N[C@H]1CN(C(=O)c2cncc3ccccc23)CCC1(F)F)N1CC(O)C1
2. CNC(=O)c1cc(Br)cc([N+](=O)[O-])c1O[C@@H]1CCCC[C@@H]1NC(=O)c1cncc2ccccc12

stdout:
< 100 nM
< 100 nM

###

Entries below carry reported IC50 on UniProtKB P0DTD1.

Field: example entries. Status: answers known.
INSERT INTO assay_data (molecule, target_under_test, result) VALUES
  ('CNC(=O)c1cc(Cl)cc([N+](=O)[O-])c1N[C@H]1CN(C(=O)c2cncc(Cl)c2C)CCC1(F)F [Compound 169]', 'UniProtKB P0DTD1', '< 100 nM'),
  ('CC(C)C(Nc1c(-c2nnc[nH]2)cc(Br)cc1[N+](=O)[O-])C1CN(C(=O)c2cncc3ccccc23)C1 (centres unmarked) [Compound 17]', 'UniProtKB P0DTD1', '100 to 1000 nM'),
  ('CNC(=O)c1cc(Br)cc([N+](=O)[O-])c1NC1CN(C(=O)c2cncc3ccccc23)CC1(F)F (centres unmarked) [Compound 18]', 'UniProtKB P0DTD1', '100 to 1000 nM'),
  ('CNC(=O)c1cc(Br)cc([N+](=O)[O-])c1O[C@@H]1CN(C(=O)c2cncc3ccccc23)CCC1(F)F [Compound 179]', 'UniProtKB P0DTD1', '100 to 1000 nM'),
  ('O=C(NCC(F)(F)F)c1cc(Cl)cc([N+](=O)[O-])c1N[C@H]1CN(C(=O)c2cncc3ccccc23)CCC1(F)F [Compound 91]', 'UniProtKB P0DTD1', '< 100 nM'),
  ('CNC(=O)c1cc(Br)cc([N+](=O)[O-])c1N1CCC2(CN(C(=O)c3cncc4ccccc34)CC2(F)F)C1 (centres unmarked) [Compound 129]', 'UniProtKB P0DTD1', '100 to 1000 nM');

Hi there! I need IC50 for each item below, if you can.
1. CNC(=O)c1cc(Br)cc([N+](=O)[O-])c1N[C@H]1CN(C(=O)c2cncc3cccnc23)CC[C@@H]1F [Compound 108]
2. O=C(NC1CC(F)(F)C1)c1cc(Cl)cc([N+](=O)[O-])c1N[C@H]1CN(C(=O)c2cncc3ccccc23)CCC1(F)F [Compound 158]
3. CN(C)C1CN(C(=O)c2cc(Br)cc([N+](=O)[O-])c2N[C@H]2CN(C(=O)c3cncc4ccccc34)CCC2(F)F)C1 [Compound 47]

stdout:
["< 100 nM", "< 100 nM", "< 100 nM"]

Items follow; give IC50 for each.
1. O=C(N[C@@H]1CCOC1)c1cc(Br)cc([N+](=O)[O-])c1N[C@H]1CN(C(=O)c2cncc3ccccc23)CCC1(F)F [Compound 37]
2. CNC(=O)c1cc(Br)cc([N+](=O)[O-])c1N[C@H]1CN(C(=O)c2cncc3ccccc23)CC(F)(F)C1 [Compound 62]
3. O=C(NC1CC(F)(F)C1)c1cc(Br)cc(C(F)(F)F)c1N[C@@H]1COCC[C@@H]1NC(=O)c1cncc2cc(F)ccc12 [Compound 80]
4. CNC(=O)c1cc(Br)cc([N+](=O)[O-])c1NC(C(C)C)C1CN(C(=O)c2cncc3ccccc23)C1 (centres unmarked) [Compound 99]
5. CNC(=O)c1cc(Br)cc([N+](=O)[O-])c1NCC1CN(C(=O)c2cncc3ccccc23)CC1(F)F (centres unmarked) [Compound 77]

stdout:
1. < 100 nM
2. 100 to 1000 nM
3. 100 to 1000 nM
4. 100 to 1000 nM
5. 1000 to 10000 nM
